Conditions: in n-propanol, 323.15 K
Experimental readout: solubility (mole fraction)
Hey, just send me the number, nothing else.

Value of solubility (mole fraction) reported for the compound CN(C)CCC=C1c2ccccc2CCc2ccccc21.Cl is 0.131

----------
Conditions: in n-butanol, 283.15 K
Experimental readout: solubility (mole fraction)
Hey, just send me the number, nothing else.

Value of solubility (mole fraction) reported for the compound CN(C)CCC=C1c2ccccc2CCc2ccccc21.Cl is 0.0187

----------
Conditions: in n-hexanol, 288.15 K
Experimental readout: solubility (mole fraction)

Value of solubility (mole fraction) reported for the molecule CN(C)CCC=C1c2ccccc2CCc2ccccc21.Cl is 0.0176

----------
Settings: in n-heptanol, 288.15 K
Experimental readout: solubility (mole fraction)
Hey, just send me the number, nothing else.

Value of solubility (mole fraction) reported for the compound CN(C)CCC=C1c2ccccc2CCc2ccccc21.Cl is 0.0151

----------
Settings: in n-hexanol, 308.15 K
Experimental readout: solubility (mole fraction)
Hey, just send me the number, nothing else.

Value of solubility (mole fraction) reported for the compound CN(C)CCC=C1c2ccccc2CCc2ccccc21.Cl is 0.0407

----------
Conditions: in DMF, 288.15 K
Experimental readout: solubility (mole fraction)

Value of solubility (mole fraction) reported for the compound CN(C)CCC=C1c2ccccc2CCc2ccccc21.Cl is 0.0354

----------
Conditions: in n-propanol, 298.15 K
Experimental readout: solubility (mole fraction)
Hey, just send me the number, nothing else.

Value of solubility (mole fraction) reported for the molecule CN(C)CCC=C1c2ccccc2CCc2ccccc21.Cl is 0.0572

----------
Conditions: in NMP, 318.15 K
Experimental readout: solubility (mole fraction)

Value of solubility (mole fraction) reported for the molecule CN(C)CCC=C1c2ccccc2CCc2ccccc21.Cl is 0.0652

----------
Details: in NMP, 278.15 K
Experimental readout: solubility (mole fraction)
Hey, just send me the number, nothing else.

Value of solubility (mole fraction) reported for the compound CN(C)CCC=C1c2ccccc2CCc2ccccc21.Cl is 0.0311

----------
Details: in n-butanol, 298.15 K
Experimental readout: solubility (mole fraction)
Hey, just send me the number, nothing else.

Value of solubility (mole fraction) reported for the compound CN(C)CCC=C1c2ccccc2CCc2ccccc21.Cl is 0.0405

----------
Details: in 2-butoxyethanol, 308.15 K
Experimental readout: solubility (mole fraction)
Hey, just send me the number, nothing else.

Value of solubility (mole fraction) reported for the molecule CN(C)CCC=C1c2ccccc2CCc2ccccc21.Cl is 0.0793

----------
Details: in n-propanol, 318.15 K
Experimental readout: solubility (mole fraction)
Hey, just send me the number, nothing else.

Value of solubility (mole fraction) reported for the molecule CN(C)CCC=C1c2ccccc2CCc2ccccc21.Cl is 0.117

----------
Conditions: in DMF, 278.15 K
Experimental readout: solubility (mole fraction)
Hey, just send me the number, nothing else.

Value of solubility (mole fraction) reported for the molecule CN(C)CCC=C1c2ccccc2CCc2ccccc21.Cl is 0.0295

----------
Conditions: in 2-ethoxyethanol, 308.15 K
Experimental readout: solubility (mole fraction)
Hey, just send me the number, nothing else.

Value of solubility (mole fraction) reported for the molecule CN(C)CCC=C1c2ccccc2CCc2ccccc21.Cl is 0.123

----------
Conditions: in ethanol, 293.15 K
Experimental readout: solubility (mole fraction)

Value of solubility (mole fraction) reported for the molecule CN(C)CCC=C1c2ccccc2CCc2ccccc21.Cl is 0.0653
